# credit: paper PMC4826192

molecular target: ALK (Homo sapiens)
Sequence (Q9UM73 19-1620): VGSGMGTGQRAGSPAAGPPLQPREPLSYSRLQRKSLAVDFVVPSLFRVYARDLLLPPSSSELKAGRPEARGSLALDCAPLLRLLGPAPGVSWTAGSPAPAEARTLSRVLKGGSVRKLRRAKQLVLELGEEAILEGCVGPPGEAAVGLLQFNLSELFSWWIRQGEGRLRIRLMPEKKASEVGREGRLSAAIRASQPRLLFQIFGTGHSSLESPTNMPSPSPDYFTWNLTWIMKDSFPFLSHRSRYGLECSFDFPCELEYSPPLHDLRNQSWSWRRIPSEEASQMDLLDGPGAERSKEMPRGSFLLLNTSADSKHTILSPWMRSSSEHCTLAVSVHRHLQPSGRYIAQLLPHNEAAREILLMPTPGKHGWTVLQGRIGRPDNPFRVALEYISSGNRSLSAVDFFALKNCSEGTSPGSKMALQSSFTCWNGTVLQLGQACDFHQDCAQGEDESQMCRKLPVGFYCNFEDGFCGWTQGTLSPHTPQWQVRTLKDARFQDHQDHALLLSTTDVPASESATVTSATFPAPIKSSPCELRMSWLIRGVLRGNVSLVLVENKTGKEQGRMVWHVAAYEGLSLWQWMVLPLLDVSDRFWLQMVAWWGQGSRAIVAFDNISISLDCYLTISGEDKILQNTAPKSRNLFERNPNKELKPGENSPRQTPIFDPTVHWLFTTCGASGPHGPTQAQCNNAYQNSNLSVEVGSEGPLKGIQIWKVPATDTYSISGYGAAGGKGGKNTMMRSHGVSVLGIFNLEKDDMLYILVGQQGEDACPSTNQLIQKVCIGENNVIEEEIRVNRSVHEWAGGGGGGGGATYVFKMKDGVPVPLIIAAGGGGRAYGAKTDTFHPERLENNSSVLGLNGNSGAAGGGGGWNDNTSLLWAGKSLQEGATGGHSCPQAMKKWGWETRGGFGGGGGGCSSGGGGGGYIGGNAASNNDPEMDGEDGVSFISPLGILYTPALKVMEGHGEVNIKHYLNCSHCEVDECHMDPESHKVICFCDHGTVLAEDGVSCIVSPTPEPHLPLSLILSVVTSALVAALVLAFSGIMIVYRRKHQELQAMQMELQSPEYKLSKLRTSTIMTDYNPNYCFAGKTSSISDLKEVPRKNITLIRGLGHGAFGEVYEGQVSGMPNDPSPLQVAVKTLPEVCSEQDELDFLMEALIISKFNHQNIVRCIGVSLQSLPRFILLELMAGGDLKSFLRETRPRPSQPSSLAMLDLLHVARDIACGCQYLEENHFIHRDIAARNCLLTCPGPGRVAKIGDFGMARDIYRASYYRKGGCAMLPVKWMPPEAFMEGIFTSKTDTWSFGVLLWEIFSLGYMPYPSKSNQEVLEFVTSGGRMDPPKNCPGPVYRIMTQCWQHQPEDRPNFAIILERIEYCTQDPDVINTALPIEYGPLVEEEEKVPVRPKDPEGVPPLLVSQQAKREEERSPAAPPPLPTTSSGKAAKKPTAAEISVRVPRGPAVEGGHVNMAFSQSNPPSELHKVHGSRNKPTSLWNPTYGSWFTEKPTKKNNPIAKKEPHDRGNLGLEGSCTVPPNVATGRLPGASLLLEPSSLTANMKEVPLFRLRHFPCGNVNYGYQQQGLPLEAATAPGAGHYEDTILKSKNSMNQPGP
pIC50: −log10 of the molar value.
OBSERVATION_TYPE: pIC50

Consider the compound COCCNCc1ccc(-c2cc3nccc(Oc4ccc(NC(=O)C5(C(=O)Nc6ccc(F)cc6)CC5)cc4F)c3s2)nc1 and give its measured pIC50.
< 5.00

###

Molecular target: JAK3 (Homo sapiens)
Sequence (P52333 1-1124): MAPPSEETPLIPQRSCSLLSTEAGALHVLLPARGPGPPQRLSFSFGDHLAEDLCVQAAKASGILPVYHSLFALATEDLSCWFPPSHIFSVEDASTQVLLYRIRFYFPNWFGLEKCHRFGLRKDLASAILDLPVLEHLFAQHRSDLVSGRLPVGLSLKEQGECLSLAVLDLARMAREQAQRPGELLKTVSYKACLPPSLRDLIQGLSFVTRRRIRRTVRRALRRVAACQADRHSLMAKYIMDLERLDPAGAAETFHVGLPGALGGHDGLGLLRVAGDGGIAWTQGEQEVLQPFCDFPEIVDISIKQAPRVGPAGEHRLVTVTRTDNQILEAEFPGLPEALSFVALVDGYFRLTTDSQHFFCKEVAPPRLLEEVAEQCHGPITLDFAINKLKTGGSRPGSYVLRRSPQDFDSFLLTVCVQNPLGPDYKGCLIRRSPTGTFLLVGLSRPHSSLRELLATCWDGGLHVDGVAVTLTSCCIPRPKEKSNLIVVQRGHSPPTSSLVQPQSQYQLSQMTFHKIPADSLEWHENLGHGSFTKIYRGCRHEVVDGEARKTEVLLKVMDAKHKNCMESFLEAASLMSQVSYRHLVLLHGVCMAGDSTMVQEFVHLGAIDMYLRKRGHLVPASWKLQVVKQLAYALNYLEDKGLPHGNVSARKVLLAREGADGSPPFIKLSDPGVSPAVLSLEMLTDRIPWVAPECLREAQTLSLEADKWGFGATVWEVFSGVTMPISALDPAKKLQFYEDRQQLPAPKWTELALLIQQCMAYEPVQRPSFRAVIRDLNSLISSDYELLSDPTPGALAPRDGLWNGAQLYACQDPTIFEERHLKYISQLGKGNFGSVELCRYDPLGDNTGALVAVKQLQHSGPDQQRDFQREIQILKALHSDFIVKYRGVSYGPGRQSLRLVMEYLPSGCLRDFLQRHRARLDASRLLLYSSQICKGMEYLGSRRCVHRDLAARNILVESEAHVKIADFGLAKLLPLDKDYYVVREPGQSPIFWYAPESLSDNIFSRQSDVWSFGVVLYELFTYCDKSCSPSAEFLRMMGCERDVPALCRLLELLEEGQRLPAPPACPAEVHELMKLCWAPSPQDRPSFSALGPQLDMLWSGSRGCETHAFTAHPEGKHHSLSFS
OBSERVATION_TYPE: IC50

Could you tell me which IC50 is on file for COCCNCc1ccc(-c2cc3nccc(Oc4ccc(NC(=O)C5(C(=O)Nc6ccc(F)cc6)CC5)cc4F)c3s2)nc1 [MGCD516, Sitravatinib] ?
> 10 µM

###

target: FES (Homo sapiens)
Sequence (P07332 whole entry): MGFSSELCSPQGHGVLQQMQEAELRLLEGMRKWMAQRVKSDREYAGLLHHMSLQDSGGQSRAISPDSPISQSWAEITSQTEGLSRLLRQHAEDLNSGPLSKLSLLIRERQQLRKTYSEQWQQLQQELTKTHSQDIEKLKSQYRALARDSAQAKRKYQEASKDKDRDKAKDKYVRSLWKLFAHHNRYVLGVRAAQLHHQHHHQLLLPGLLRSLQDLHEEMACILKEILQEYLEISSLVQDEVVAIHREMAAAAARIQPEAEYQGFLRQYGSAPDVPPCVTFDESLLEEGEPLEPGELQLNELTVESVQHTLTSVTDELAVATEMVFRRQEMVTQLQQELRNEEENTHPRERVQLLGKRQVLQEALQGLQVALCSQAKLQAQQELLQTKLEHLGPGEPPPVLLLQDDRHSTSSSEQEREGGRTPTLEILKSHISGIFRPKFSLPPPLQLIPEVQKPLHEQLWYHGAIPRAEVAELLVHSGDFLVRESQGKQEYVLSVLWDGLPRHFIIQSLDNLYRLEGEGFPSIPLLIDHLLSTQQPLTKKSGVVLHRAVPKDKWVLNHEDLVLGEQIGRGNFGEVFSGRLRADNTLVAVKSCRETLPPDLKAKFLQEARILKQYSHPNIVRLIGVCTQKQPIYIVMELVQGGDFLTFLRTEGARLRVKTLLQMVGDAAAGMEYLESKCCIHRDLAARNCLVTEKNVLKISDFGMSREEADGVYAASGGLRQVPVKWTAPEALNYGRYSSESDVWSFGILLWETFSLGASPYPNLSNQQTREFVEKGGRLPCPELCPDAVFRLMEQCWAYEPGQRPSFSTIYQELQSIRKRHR
OBSERVATION_TYPE: pIC50
Scale: pIC50 equals -log10([C]), with [C] in mol/L.

Reported pIC50 for FES (Homo sapiens), given COCCNCc1ccc(-c2cc3nccc(Oc4ccc(NC(=O)C5(C(=O)Nc6ccc(F)cc6)CC5)cc4F)c3s2)nc1 [MGCD516, Sitravatinib] ?
5.70

###

target: ROS (Homo sapiens, UniProt P08922)
Sequence (P08922 28-2347): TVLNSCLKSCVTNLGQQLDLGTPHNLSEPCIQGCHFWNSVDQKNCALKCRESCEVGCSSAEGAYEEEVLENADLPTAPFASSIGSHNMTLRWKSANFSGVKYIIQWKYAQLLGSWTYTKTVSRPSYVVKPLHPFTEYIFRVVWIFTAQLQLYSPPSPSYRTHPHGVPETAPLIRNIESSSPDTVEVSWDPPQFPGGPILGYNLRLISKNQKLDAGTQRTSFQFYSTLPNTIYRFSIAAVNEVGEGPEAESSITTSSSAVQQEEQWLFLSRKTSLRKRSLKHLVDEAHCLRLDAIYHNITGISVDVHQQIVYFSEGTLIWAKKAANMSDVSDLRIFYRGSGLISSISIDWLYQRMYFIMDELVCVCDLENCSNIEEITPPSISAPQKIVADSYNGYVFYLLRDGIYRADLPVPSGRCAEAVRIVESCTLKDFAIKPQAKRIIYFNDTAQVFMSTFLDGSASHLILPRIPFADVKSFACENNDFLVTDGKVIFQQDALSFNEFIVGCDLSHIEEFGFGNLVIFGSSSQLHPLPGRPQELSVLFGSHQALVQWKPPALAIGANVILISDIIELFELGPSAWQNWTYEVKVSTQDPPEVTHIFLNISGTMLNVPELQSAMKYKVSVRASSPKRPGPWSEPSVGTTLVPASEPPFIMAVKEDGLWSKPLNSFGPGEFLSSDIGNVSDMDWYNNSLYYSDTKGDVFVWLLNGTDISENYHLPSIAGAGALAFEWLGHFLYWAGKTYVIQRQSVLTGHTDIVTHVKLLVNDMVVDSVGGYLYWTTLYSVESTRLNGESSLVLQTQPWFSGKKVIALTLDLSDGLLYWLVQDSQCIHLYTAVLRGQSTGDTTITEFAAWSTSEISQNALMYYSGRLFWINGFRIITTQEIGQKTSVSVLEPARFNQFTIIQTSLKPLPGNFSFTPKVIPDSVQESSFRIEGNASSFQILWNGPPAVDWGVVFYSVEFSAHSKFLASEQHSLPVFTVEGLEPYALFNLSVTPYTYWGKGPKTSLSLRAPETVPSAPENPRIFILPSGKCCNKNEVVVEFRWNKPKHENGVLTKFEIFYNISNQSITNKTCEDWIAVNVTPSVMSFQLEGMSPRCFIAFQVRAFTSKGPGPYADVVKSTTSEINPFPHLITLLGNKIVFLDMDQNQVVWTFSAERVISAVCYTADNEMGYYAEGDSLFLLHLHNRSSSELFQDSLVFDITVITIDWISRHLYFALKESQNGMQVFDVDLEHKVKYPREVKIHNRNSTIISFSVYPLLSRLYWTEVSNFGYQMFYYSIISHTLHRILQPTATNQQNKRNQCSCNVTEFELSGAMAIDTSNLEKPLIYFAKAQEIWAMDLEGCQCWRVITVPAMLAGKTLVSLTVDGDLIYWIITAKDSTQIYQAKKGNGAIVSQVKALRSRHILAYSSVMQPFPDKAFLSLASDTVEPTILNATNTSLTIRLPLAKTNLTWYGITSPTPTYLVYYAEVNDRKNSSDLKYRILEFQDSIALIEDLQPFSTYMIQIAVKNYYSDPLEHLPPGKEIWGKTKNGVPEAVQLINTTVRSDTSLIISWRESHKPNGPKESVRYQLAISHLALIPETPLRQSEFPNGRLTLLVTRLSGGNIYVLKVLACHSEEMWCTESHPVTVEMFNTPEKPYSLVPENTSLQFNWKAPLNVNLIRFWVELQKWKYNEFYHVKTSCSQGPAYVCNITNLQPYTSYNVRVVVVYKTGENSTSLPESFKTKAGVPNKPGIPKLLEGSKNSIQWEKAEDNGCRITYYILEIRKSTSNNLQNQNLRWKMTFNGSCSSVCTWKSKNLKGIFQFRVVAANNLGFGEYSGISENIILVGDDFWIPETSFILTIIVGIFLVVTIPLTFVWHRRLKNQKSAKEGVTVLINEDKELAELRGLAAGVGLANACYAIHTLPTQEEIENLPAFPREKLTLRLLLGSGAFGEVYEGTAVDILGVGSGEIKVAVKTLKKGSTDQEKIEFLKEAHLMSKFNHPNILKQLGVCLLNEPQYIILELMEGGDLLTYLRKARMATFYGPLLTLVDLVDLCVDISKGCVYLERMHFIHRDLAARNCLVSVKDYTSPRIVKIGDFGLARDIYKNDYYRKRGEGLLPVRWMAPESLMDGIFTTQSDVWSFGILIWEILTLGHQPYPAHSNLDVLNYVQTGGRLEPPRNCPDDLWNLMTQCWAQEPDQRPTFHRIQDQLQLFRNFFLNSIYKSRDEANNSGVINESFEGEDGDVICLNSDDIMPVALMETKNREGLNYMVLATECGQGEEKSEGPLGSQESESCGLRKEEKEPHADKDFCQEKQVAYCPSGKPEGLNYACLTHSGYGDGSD
OBSERVATION_TYPE: IC50 (nM)
Give the quantity in nM, number only.

Fill in the recorded IC50 for this molecule, with ROS (Homo sapiens, UniProt P08922) as test system: COCCNCc1ccc(-c2cc3nccc(Oc4ccc(NC(=O)C5(C(=O)Nc6ccc(F)cc6)CC5)cc4F)c3s2)nc1
59
